# Test Name: Human pregnane X receptor (PXR) small molecule agonists, qHTS cell viability counter screen (AID 1346977); further: nearly all actives have a fitted effect of over 50% in size
# Condition: PXR-Luc HepG2 viability, CellTiter-Fluor, 24 h; series mostly up to 92.4 µM
Records with an inconclusive call do not appear. Active and inactive are the calls of the source. The call rests on the fitted dose curve; in most records, active means well fitted cell-killing curve with a large enough effect in the repeat runs; inconclusive means weak or mixed curves, or effect the other way; inactive means flat fitted curve, though single readings scatter.
Outcomes: True = active, False = inactive

| Compound | Assigned Label |
| --- | --- |
| C=CC(=O)OCC(O)COc1ccccc1 (centres undefined) | False |
| CCCCCCCC(OC)OC | False |
| O=Cc1ccc(F)cc1 | False |
| Cc1cc2c(C(C)C)c(O)c(O)c(C=O)c2c(O)c1-c1c(C)cc2c(C(C)C)c(O)c(O)c(C=O)c2c1O | True |
| COc1ccc2sc(C(=O)Nc3nnn[nH]3)c(OC(C)C)c2c1 | True |
| CC(C)(C)c1cc(CCC(=O)NCCCCCCNC(=O)CCc2cc(C(C)(C)C)c(O)c(C(C)(C)C)c2)cc(C(C)(C)C)c1O | False |
| CC(C)(C)c1n[nH]c(=O)n(N)c1=O | False |
| O=C(Oc1ccccc1)c1cccc(C(=O)Oc2ccccc2)c1 | False |
| c1ccc(Sc2ccccc2)cc1 | False |
| CC1CNCC(C)O1 (centres undefined) | False |
| CCN(CC)CCNc1ccc(CO)c2sc3ccccc3c(=O)c12 | True |
| CCc1ccc(O)c(C(C)(C)C)c1 | False |
| C/C=C/C(=O)C1=C(C)CCCC1(C)C | False |
| CCOC(/C=C(\C)CCC=C(C)C)OCC | False |
